This collection of values is drawn from the Immune Epitope Database (IEDB).

- STUDY_TARGET: HLA-B*18:01
- EXPERIMENTAL_PROTOCOL: IEDB peptide-MHC binding, purified MHC/direct/fluorescence; filed as Kd, often an IC50 or EC50 that approximates it; bounds were set here for any values at or beyond the usual limits of such assays
- ASSAY_SETUP: source organism: Yersinia pestis CA88-4125
MEASURE: Kd

Query: Kd; subject: LPEAYQWHI
≥ 20 µM

====

- STUDY_TARGET: HLA-B*07:02
- EXPERIMENTAL_PROTOCOL: IEDB peptide-MHC binding, purified MHC/direct/fluorescence; filed as Kd, often an IC50 or EC50 that approximates it; bounds were set here for any values at or beyond the usual limits of such assays
- ASSAY_SETUP: source organism: Vibrio vulnificus
pKd: −log10 of the molar value.
MEASURE: pKd

// returns reported pKd for input GSEVPGFCH
≤ 4.70

====

- STUDY_TARGET: HLA-B*46:01
- EXPERIMENTAL_PROTOCOL: IEDB peptide-MHC binding, purified MHC/competitive/fluorescence; filed as Kd, often an IC50 or EC50 that approximates it; bounds were set here for any values at or beyond the usual limits of such assays
- ASSAY_SETUP: source organism: Neembucu hantavirus
MEASURE: Kd

Query: Kd; subject: ILYMLSWGK
≥ 20 µM

====

- STUDY_TARGET: HLA-B*40:01
- EXPERIMENTAL_PROTOCOL: IEDB peptide-MHC binding, purified MHC/direct/fluorescence; filed as Kd, often an IC50 or EC50 that approximates it; bounds were set here for any values at or beyond the usual limits of such assays
- ASSAY_SETUP: source organism: Orthohantavirus negraense
MEASURE: Kd (nM)
Write the number in nM without appending the unit.

Please report the recorded Kd for TEFFMSRKL .
1.4

====

- STUDY_TARGET: HLA-A*11:01
- EXPERIMENTAL_PROTOCOL: IEDB peptide-MHC binding, purified MHC/direct/fluorescence; filed as Kd, often an IC50 or EC50 that approximates it; bounds were set here for any values at or beyond the usual limits of such assays
- ASSAY_SETUP: source organism: Campylobacter jejuni
MEASURE: pKd
Answer as the number alone; pKd is minus log10 of concentration in mol/L.

Lab note: need pKd with HLA-A*11:01 for entry IMLEYPHFK , please look it up.
8.74

====

- STUDY_TARGET: HLA-B*07:02
- EXPERIMENTAL_PROTOCOL: IEDB peptide-MHC binding, purified MHC/direct/fluorescence; filed as Kd, often an IC50 or EC50 that approximates it; bounds were set here for any values at or beyond the usual limits of such assays
- ASSAY_SETUP: source organism: Camelpox virus CMS
MEASURE: pKd
When answering, recall that pKd equals minus log10 of the concentration in mol/L, and write that number alone.

Item under review: VIARTHTAL . Reported pKd?
7.23

====

- STUDY_TARGET: HLA-A*31:01
- EXPERIMENTAL_PROTOCOL: IEDB peptide-MHC binding, purified MHC/competitive/radioactivity; filed as Kd, often an IC50 or EC50 that approximates it; bounds were set here for any values at or beyond the usual limits of such assays
- ASSAY_SETUP: source organism: Dengue virus 2 Jamaica/1409/1983
Answer each item with its documented pKd.
# pKd is unitless: minus log10 of the molar concentration; print number only

// lookup pKd | system=HLA-A*31:01 | key= KLKPRWLDAR
8.86

// map MISRMLINR to recorded pKd (system: HLA-A*31:01)
8.36

# query: pKd | item CTLPPLRYR | system: HLA-A*31:01
8.54

What reported pKd corresponds to ATTFVTPMLR on HLA-A*31:01?
7.04

Which pKd is reported with HLA-A*31:01 for this entry: AINVLRGFR ?
8.43

====

- STUDY_TARGET: HLA-A*31:01
- EXPERIMENTAL_PROTOCOL: IEDB peptide-MHC binding, purified MHC/direct/fluorescence; filed as Kd, often an IC50 or EC50 that approximates it; bounds were set here for any values at or beyond the usual limits of such assays
- ASSAY_SETUP: source organism: SARS-CoV1
MEASURE: Kd (nM)
Lab book: enter the figure in nM, no units written.

I am curious: what Kd value has been reported for KLFAAETLK ?
173

Look up Kd: RHYSASFKK
1250

====

- STUDY_TARGET: HLA-A*02:01
- EXPERIMENTAL_PROTOCOL: IEDB peptide-MHC binding, purified MHC/competitive/fluorescence; bounds were set here for any values at or beyond the usual limits of such assays
- ASSAY_SETUP: source organism: Variola virus
MEASURE: IC50
Report as: number unit

Look up IC50 for this sequence: LTKLFSYGT
36.1 µM

====

- STUDY_TARGET: HLA-A*02:01
- EXPERIMENTAL_PROTOCOL: IEDB peptide-MHC binding, purified MHC/competitive/fluorescence; filed as Kd, often an IC50 or EC50 that approximates it; bounds were set here for any values at or beyond the usual limits of such assays
- ASSAY_SETUP: source organism: Reston ebolavirus
MEASURE: Kd

# get_value(readout='Kd', item= WFQRIPLQW )
≥ 20 µM

====

Consider the following sequences; for each one, report its pKd.
- STUDY_TARGET: HLA-B*51:01
- EXPERIMENTAL_PROTOCOL: IEDB peptide-MHC binding, purified MHC/competitive/radioactivity; filed as Kd, often an IC50 or EC50 that approximates it; bounds were set here for any values at or beyond the usual limits of such assays
- ASSAY_SETUP: source organism: Dengue virus 4 Philippines/H241/1956
Quick note: pKd means taking -log10 of the concentration in moles per liter.

Fill in: pKd of VPLAGPMVA is ___
4.77

Entry LAGFMAYMI has what pKd?
5.15

====

- STUDY_TARGET: HLA-A*02:01
- EXPERIMENTAL_PROTOCOL: IEDB peptide-MHC binding, purified MHC/direct/fluorescence; filed as Kd, often an IC50 or EC50 that approximates it; bounds were set here for any values at or beyond the usual limits of such assays
- ASSAY_SETUP: source organism: Pseudomonas aeruginosa
MEASURE: pKd
Scale explanation: pKd corresponds to minus log10 of a concentration expressed in moles per litre.

Return pKd measured with HLA-A*02:01 given this sequence: ILGRYLPEF
5.38

====

- STUDY_TARGET: HLA-A*02:01
- EXPERIMENTAL_PROTOCOL: IEDB peptide-MHC binding, purified MHC/direct/fluorescence; filed as Kd, often an IC50 or EC50 that approximates it; bounds were set here for any values at or beyond the usual limits of such assays
- ASSAY_SETUP: source organism: Listeria monocytogenes
pKd: −log10 of the molar value.
MEASURE: pKd

What does the data say about its pKd? Entry: EIEIEKNKK
≤ 4.70

====

- STUDY_TARGET: HLA-A*02:11
- EXPERIMENTAL_PROTOCOL: IEDB peptide-MHC binding, purified MHC/direct/fluorescence; filed as Kd, often an IC50 or EC50 that approximates it; bounds were set here for any values at or beyond the usual limits of such assays
- ASSAY_SETUP: source organism: Limestone Canyon virus
pKd: −log10 of the molar value.
MEASURE: pKd

I'd like to know its pKd. The sequence in question is KLKKKSAFY
≤ 4.70

====

- STUDY_TARGET: HLA-B*27:05
- EXPERIMENTAL_PROTOCOL: IEDB peptide-MHC binding, purified MHC/direct/fluorescence; filed as Kd, often an IC50 or EC50 that approximates it; bounds were set here for any values at or beyond the usual limits of such assays
- ASSAY_SETUP: source organism: Vibrio vulnificus
pKd: −log10 of the molar value.
MEASURE: pKd

What is its pKd for HLA-B*27:05? Entry: NGYRWQHQI
≤ 4.70

Fill in the recorded pKd for this sequence, with HLA-B*27:05 as test system: GSEVPGFCH
≤ 4.70

====

For each entry below, report its pKd value.
- STUDY_TARGET: HLA-A*02:06
- EXPERIMENTAL_PROTOCOL: IEDB peptide-MHC binding, purified MHC/competitive/radioactivity; filed as Kd, often an IC50 or EC50 that approximates it; bounds were set here for any values at or beyond the usual limits of such assays
- ASSAY_SETUP: source organism: Trypanosoma cruzi
pKd field: float, defined as -log10 of concentration (mol/L).

What pKd value was documented for this sequence, FANHAFTLV ?
8.92

What does the data say about its pKd? Entry: LLGLWGLAAL
6.84

====

- STUDY_TARGET: HLA-A*26:01
- EXPERIMENTAL_PROTOCOL: IEDB peptide-MHC binding, purified MHC/direct/fluorescence; filed as Kd, often an IC50 or EC50 that approximates it; bounds were set here for any values at or beyond the usual limits of such assays
- ASSAY_SETUP: source organism: Coxiella burnetii RSA 493
MEASURE: Kd

Request the reported Kd associated with IIGLLKIFR
≥ 20 µM
